# STUDY_TARGET: HIV-1 ADA Env (HIV-1)
# ASSAY_INFO: cell-based or functional assay
Here, each record is paired with measured IC50, TZM-bl pseudovirus neutralization data.
ENDPOINT_LABEL: IC50, TZM-bl pseudovirus neutralization (ng/mL)

INSERT INTO results (binder, endpoint_label, quantitative_result) VALUES
  ('1469_M23 (PG16) (TCN-118) (antibody, V domains shown) VH: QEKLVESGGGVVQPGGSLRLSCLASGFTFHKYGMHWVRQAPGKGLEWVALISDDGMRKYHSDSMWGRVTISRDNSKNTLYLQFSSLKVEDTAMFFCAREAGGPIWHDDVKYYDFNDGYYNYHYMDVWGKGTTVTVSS VL: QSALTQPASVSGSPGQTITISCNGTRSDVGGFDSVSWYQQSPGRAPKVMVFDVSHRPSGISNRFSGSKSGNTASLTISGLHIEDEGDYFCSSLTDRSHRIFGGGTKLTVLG', 'IC50, TZM-bl pseudovirus neutralization', 5),
  ('1489_I13 (PG16) (TCN-120) (antibody, V domains shown) VH: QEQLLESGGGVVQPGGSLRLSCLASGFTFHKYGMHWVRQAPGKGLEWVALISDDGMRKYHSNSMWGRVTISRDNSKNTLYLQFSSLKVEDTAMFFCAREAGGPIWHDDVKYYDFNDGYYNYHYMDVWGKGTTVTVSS VL: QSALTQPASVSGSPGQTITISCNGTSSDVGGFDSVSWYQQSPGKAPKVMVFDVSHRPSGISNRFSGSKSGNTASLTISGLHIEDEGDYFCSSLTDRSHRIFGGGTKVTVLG', 'IC50, TZM-bl pseudovirus neutralization', 8),
  ('1503_H05 (PG16) (TCN-119) (antibody, V domains shown) VH: QEKLVESGGGVVQPGGSLRLSCLASGFTFHKYGMHWVRQAPGKGLEWVALISDDGMRKYHSDSMWGRVTISRDNSKNTLYLQFSSLKVEDTAMFFCAREAGGPIWHDDVKYYDFNDGYYNYHYMDVWGKGTIVTVSS VL: QSALTQPASVSGSPGQTITISCNGTRSDVGGFDSVSWYQQSPGKAPKVMVFDVSHRPSGISNRFSGSKSGNTASLTISGLHIEDEGDYFCSSLTDRSHRIFGGGTKVTVLG', 'IC50, TZM-bl pseudovirus neutralization', 3),
  ('1456_A12 (PG16) (TCN-117) (antibody, V domains shown) VH: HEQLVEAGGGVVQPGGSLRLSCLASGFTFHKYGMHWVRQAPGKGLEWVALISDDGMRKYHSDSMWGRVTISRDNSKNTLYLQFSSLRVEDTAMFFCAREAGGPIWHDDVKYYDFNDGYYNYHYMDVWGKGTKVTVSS VL: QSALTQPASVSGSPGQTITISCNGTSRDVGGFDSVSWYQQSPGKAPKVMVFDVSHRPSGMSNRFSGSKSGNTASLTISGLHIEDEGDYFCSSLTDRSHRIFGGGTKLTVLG', 'IC50, TZM-bl pseudovirus neutralization', 5);
